test_target: APOL1 (Homo sapiens)
Sequence (O14791 whole entry S342G/I384M, form open): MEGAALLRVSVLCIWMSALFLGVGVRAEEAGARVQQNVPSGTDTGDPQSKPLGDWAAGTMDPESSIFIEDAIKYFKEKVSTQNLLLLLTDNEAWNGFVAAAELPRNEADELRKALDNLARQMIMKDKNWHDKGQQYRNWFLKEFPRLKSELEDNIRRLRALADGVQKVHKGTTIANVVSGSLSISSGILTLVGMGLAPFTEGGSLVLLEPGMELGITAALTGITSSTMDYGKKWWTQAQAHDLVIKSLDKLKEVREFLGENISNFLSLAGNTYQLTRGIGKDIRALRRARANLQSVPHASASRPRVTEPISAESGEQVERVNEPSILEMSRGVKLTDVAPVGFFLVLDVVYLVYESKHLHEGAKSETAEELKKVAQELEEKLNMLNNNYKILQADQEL
assay_protocol: MultiTox-Fluor Multiplex Cytotoxicity Assay in tet-inducible APOL1 T-REx-HEK293 cells (cell rescue, ratio of dead to live cells)
condition_parameters: tet-inducible transgenic APOL1 T-REx-HEK293 cell lines, 50 ng/mL tet, 24 hours; read-out: IP50 (i.e., IC50 for cell proliferation)
Assignment: determine reported IC50 for the given compounds.

Please state IC50 for every compound in the list that follows.
1. CCc1cc2c(s1)CCOC21CCN(Cc2cn(CC(O)CC)nn2)C(C)C1 (stereo not shown)
2. C[C@H]1C[C@@]2(CCN1Cc1cn(CCS(C)(=O)=O)nn1)OCC(F)(F)c1cc(Cl)sc12

1: < 100 nM; 2: 100 to 500 nM

Please state IC50 for every compound in the list that follows.
1. CCc1cc2c(s1)CCO[C@@]21CCN(CC2CN(C(=O)CN3CCS(=O)(=O)CC3)C2)[C@@H](C)C1
2. CCc1cc2c(s1)CCO[C@@]21CCN(CC2CN(C(=O)CNC(C)=O)C2)[C@@H](C)C1

["< 100 nM", "100 to 500 nM"]

Please state IC50 for every compound in the list that follows.
1. CCc1cc2c(s1)CCO[C@@]21CCN(Cc2cn(CC(O)CN3CCOCC3)nn2)[C@@H](C)C1 (stereo partly shown)
2. C#CC(C)N1CC[C@]2(C[C@@H]1C)OCCc1cc(Cl)sc12 (stereo partly shown)
3. CCc1cc2c(s1)CCO[C@@]21CCN(CC2CN(S(=O)(=O)c3cnn4c3OCCC4)C2)[C@@H](C)C1
4. C[C@H]1C[C@@]2(CCN1Cc1cnn(CC(O)C3(CO)CCC3)c1)OCCc1c2sc(C(F)(F)F)c1CO (stereo partly shown)
5. CCc1cc2c(s1)CCO[C@@]21CCN(Cc2cn(-c3cnc(C)nc3)nn2)[C@@H](C)C1
6. CCc1cc2c(s1)CCO[C@@]21CCN(Cc2cn(C3CN(S(=O)(=O)c4cn[nH]c4)C3)nn2)[C@@H](C)C1
7. Cc1cc2c(s1)CCO[C@@]21CCN(CC(O)C(N)=O)[C@@H](C)C1 (stereo partly shown) [Compound 502]

["< 100 nM", "500 to 1000 nM", "500 to 1000 nM", "< 100 nM", "< 100 nM", "< 100 nM", "100 to 500 nM"]

###

test_target: UniProtKB O14791
assay_protocol: MultiTox-Fluor Multiplex Cytotoxicity Assay in tet-inducible APOL1 T-REx-HEK293 cells (cell rescue, ratio of dead to live cells)
condition_parameters: tet-inducible transgenic APOL1 T-REx-HEK293 cell lines, 50 ng/mL tet, 24 hours; read-out: IP50 (i.e., IC50 for cell proliferation)
experimental_endpoint: IC50

See these solved cases before continuing.
                                   compound  experimental_endpoint  endpoint_result
0  CCc1cc2c(s1)CCO[C@@]21CCN(CC2CN(C(=O)c3ncon3)C2)[C@@H](C)C1                   IC50         < 100 nM
1  CCc1cc2c(s1)CCOC21CCN(Cc2cn(CC3(OCCO)CCOC3)nn2)C(C)C1 (stereo not shown)                   IC50         < 100 nM
2  C[C@H]1C[C@@]2(CCN1CC1(C)COC1)OCCc1cc(Cl)sc12                   IC50    100 to 500 nM

Please state IC50 for every compound in the list that follows.
1. CCc1cc2c(s1)CCO[C@@]21CCN(Cc2cn([C@H]3C[C@H](S(C)(=O)=O)C3)nn2)[C@@H](C)C1
2. C[C@H]1C[C@@]2(CCN1Cc1cnn(CC(O)CC(C)(O)C3CC3)c1)OCCc1c2sc(C(F)(F)F)c1CO (stereo partly shown)
3. CCc1cc2c(s1)CCO[C@@]21CCN(Cc2cn(Cc3nnc[nH]3)nn2)[C@@H](C)C1
4. CCc1cc2c(s1)CCO[C@@]21CCN(CC2CN(S(=O)(=O)CC)C2)[C@@H](C)C1
5. CCc1cc2c(s1)CCO[C@@]21CCN(Cc2cn(CC(C)(O)c3ccccc3)nn2)[C@@H](C)C1 (stereo partly shown)
6. COCCc1ncc(CN2CC[C@]3(C[C@@H]2C)OCCc2cc(Cl)sc23)cn1
7. C[C@H]1C[C@@]2(CCN1Cc1cnn(CC(O)CC3(O)CCC3)c1)OCCc1c2sc(C(F)(F)F)c1CO (stereo partly shown)

["< 100 nM", "< 100 nM", "100 to 500 nM", "100 to 500 nM", "500 to 1000 nM", "100 to 500 nM", "< 100 nM"]

Please state IC50 for every compound in the list that follows.
1. C[C@H]1C[C@@]2(CCN1Cc1ccc(S(C)(=O)=O)nc1)OCCc1c2sc(Cl)c1CO
2. CCc1cc2c(s1)CCOC21CCN(Cc2cn(C)nn2)CC1

100 to 500 nM
500 to 1000 nM

Please state IC50 for every compound in the list that follows.
1. COc1cc(CN2CC[C@]3(C[C@@H]2C)OCCc2c3sc(Cl)c2CO)ccc1OCC(N)=O
2. CCc1cc2c(s1)CCO[C@@]21CCN(Cc2cn(CC(C)(C)C3(O)CCOCC3)nn2)[C@@H](C)C1
3. CCc1cc2c(s1)CCO[C@@]21CCN(Cc2cn(C3CN(S(=O)(=O)c4c[nH]cn4)C3)nn2)[C@@H](C)C1
4. CCc1cc2c(s1)CCO[C@@]21CCN(Cc2cn(Cc3cn(C)nn3)nn2)[C@@H](C)C1
5. C[C@H]1C[C@@]2(CCN1CC1CCOCC1)OC[C@H](O)c1cc(Cl)sc12

1: < 100 nM; 2: 100 to 500 nM; 3: < 100 nM; 4: < 100 nM; 5: 500 to 1000 nM

Please state IC50 for every compound in the list that follows.
1. C[C@H]1C[C@@]2(CCN1Cc1ccc(OCCO)cc1)OC[C@H](O)c1cc(Cl)sc12
2. CCc1cc2c(s1)CCO[C@@]21CCN(CC2CN(C(=O)CO)C2)[C@@H](C)C1
3. CCc1cc2c(s1)CCO[C@@]21CCN(C[C@H]2C[C@@H](NC(=O)c3ccc4cn[nH]c4c3)C2)[C@@H](C)C1
4. C[C@H]1C[C@@]2(CCN1Cc1cnn(C[C@@H]3CCC(=O)N3)c1)OCCc1c2sc(C(F)(F)F)c1CO

["< 100 nM", "100 to 500 nM", "< 100 nM", "< 100 nM"]

Please state IC50 for every compound in the list that follows.
1. CCc1cc2c(s1)CCOC21CCN(CC2CN(C(=O)OC(C)(C)C)C2)CC1
2. CCc1cc2c(s1)CCOC21CCN(Cc2nc(-c3ccccc3)[nH]c2Cl)CC1
3. CC(C)NC(=O)Cn1cc(CN2CC[C@]3(C[C@@H]2C)OCCc2c3sc(C(F)(F)F)c2CO)cn1

["500 to 1000 nM", "500 to 1000 nM", "< 100 nM"]

Please state IC50 for every compound in the list that follows.
1. CCc1cc2c(s1)CCO[C@@]21CCN(Cc2cn(CC3CCO3)nn2)[C@@H](C)C1 (stereo partly shown)
2. CCCOC(=O)N[C@H]1C[C@@H](CN2CC[C@]3(C[C@@H]2C)OCCc2sc(CC)cc23)C1
3. C[C@H]1C[C@@]2(CCN1Cc1cnn(CC(C)(CO)CO)c1)OCCc1cc(Cl)sc12

1. < 100 nM
2. < 100 nM
3. < 100 nM

Please state IC50 for every compound in the list that follows.
1. CCc1cc2c(s1)CCO[C@@]21CCN(CC(O)c2ccccc2Cl)[C@@H](C)C1 (stereo partly shown)
2. CCc1cc2c(s1)CCO[C@@]21CCN(Cc2cn(CC3(C(O)C(C)C)CC3)nn2)[C@@H](C)C1 (stereo partly shown)
3. C[C@H]1C[C@@]2(CCN1C[C@H]1C[C@@H](NC(=O)C3CCC3)C1)OCCc1cc(CC(F)F)sc12
4. Cc1cncc(N2CCC(CN3CC[C@]4(C[C@@H]3C)OC[C@H](O)c3cc(Cl)sc34)CC2)n1

1: < 100 nM; 2: 100 to 500 nM; 3: < 100 nM; 4: 500 to 1000 nM
